The reported measurements were obtained from ChEMBL document CHEMBL1201862.

Tested on: M14
Experiment: NCI tumour cell line growth inhibition, 48 h
Active and inactive are the calls of the source. Cut-off read from the data, not from the text of the source: active = GI50 up to about 1.1 µM and inactive = higher.

COMPOUND STRUCTURE	GI50
O=C(NNC(=O)c1nsc2ccccc12)c1ccc(Cl)cc1	19.5 µM (inactive)
NCCN(CCN(C(=O)Nc1ccccc1)c1ccccc1)C(=O)Nc1ccccc1	21.3 µM (inactive)
Cn1c(-c2ccc(-c3cc(-c4cccs4)c(-c4cccs4)n3C)cc2)cc(-c2cccs2)c1-c1cccs1	> 100 µM (inactive)

* * *

Below is a list of entries, each paired with its recorded GI50 value.
Tested on: EKVX
Test: NCI tumour cell line growth inhibition, 48 h
Active and inactive are the calls of the source. Cut-off read from the data, not from the text of the source: active = GI50 up to about 1.1 µM and inactive = higher. Square brackets hold non-standard residues; d marks the D form. Peptide text beside a SMILES is read from it. * marks the point of attachment. ξ: configuration not given here. ξD = NC(CC(=O)O)C(=O)O; Ac3c = NC1(C(=O)O)CC1; Boc = CC(C)(C)OC(=O)*; OtBu = CC(C)(C)O*

MOLECULE	GI50
CC(C#N)N(CCc1ccccc1)C(=O)c1ccccc1 (stereo not given)	> 100 µM (inactive)
O=C1C(=O)N(C2C3CC4CC(C3)CC2C4)C(=O)C(=O)C1c1nc2ccccc2o1 (stereo not given)	> 100 µM (inactive)
Cc1ccc(S(=O)(=O)OC2C(O)C(O)OC2C(c2cc(O)c3c(c2O)C(=O)c2ccccc2C3=O)c2cc(O)c3c(c2O)C(=O)c2ccccc2C3=O)cc1 (stereo not given)	3.33 µM (inactive)
O=C1C=CC(=O)C2=C1[C@@H](O)C1CC=CC3C(=O)O[C@@H]2C31 (stereo not given in full)	> 59.6 µM (inactive)
CCN1C(=O)c2cc(OC)c(OC)cc2C(=O)C12OC(=O)c1cc3c(cc12)OCO3 (stereo not given)	> 100 µM (inactive)
CC/C=C/c1cc2c(cc1O)CCC1C2CC[C@@]2(C)C1CC[C@@H]2O (stereo not given in full)	3.53 µM (inactive)
COC(=O)C1(NC(=O)C(CC(=O)OC(C)(C)C)NC(=O)OC(C)(C)C)CC1 (stereo not given) (Boc-[ξD](OtBu)-[Ac3c]-OMe)	> 100 µM (inactive)
CC(=O)Nc1ccc2c3c(cc(O)c2c1)N(C(=O)CCCC(=O)Nc1ccc2c4c(cc(O)c2c1)N(C(=O)OC(C)(C)C)CC4CCl)CC3CCl (stereo not given)	5.24 µM (inactive)
O=C1NC(N2CCCC(CO)C2)=N/C1=C\c1ccc(Cl)cc1 (stereo not given)	49.1 µM (inactive)
NNC(=O)c1nn[nH]c1SSc1[nH]nnc1C(=O)NN	> 100 µM (inactive)

* * *

Test system: NCI-H460
Assay: NCI tumour cell line growth inhibition, 48 h
Activity calls are given as the source filed them. No stated cut-off is given here; in the data, active = GI50 up to about 1.1 µM and inactive = higher.
MEASUREMENT LABEL: GI50

COMPOUND	TESTED SYSTEM	RESULT
CC[C@H](NC(=O)OC(C)(C)C)C(=O)NCP(=O)(OCc1ccc([N+](=O)[O-])cc1)OCc1ccc([N+](=O)[O-])cc1	NCI-H460	27.8 µM (inactive)
CCOC(=O)C(=O)Nc1cccc(C)c1C	NCI-H460	> 100 µM (inactive)
Nc1nc(N)nc(-c2cnccn2)n1	NCI-H460	> 100 µM (inactive)
CCN(CC)CCOc1ccc(N2Cc3ccccc3C2=O)cc1	NCI-H460	7.28 µM (inactive)
COC(=O)Cc1c([C@@H]2Nc3ccccc3[C@H]2CC(=O)OC)[nH]c2ccccc12	NCI-H460	21.1 µM (inactive)
O=C(O)c1cc(CCc2ccc(O)c(O)c2)ccc1O	NCI-H460	> 100 µM (inactive)
Nc1ncc2c(n1)-c1ccccc1OC2N1CCCC1 (stereo unspecified)	NCI-H460	> 100 µM (inactive)
COc1cc(OC)c(/C=C2\N=C(C)N(Nc3nnc(NN4C(=O)/C(=C/c5c(OC)cc(OC)cc5OC)N=C4C)c4ccccc34)C2=O)c(OC)c1	NCI-H460	> 100 µM (inactive)
CCN(CC)CC1CCCCN1CC(=O)N1c2ccc(Br)cc2C(=O)Nc2cccnc21 (stereo unspecified)	NCI-H460	> 100 µM (inactive)
Cc1ccc(S(=O)(=O)N2CCCSCC2)cc1	NCI-H460	> 100 µM (inactive)
CCOC(=O)c1c(-c2ccccc2)nc2c(OC)nccn12	NCI-H460	> 100 µM (inactive)
